Assay: Tmax in human at 400 mg, po
Type: ADME, organism-based
Conditions: in vivo, 400 mg
METRIC: Tmax

1. COc1c(N2CCNC(C)C2)c(F)cc2c(=O)c(C(=O)O)cn(C3CC3)c12 (stereo unspecified)    1.5 h

###

Assay: Half life in mouse lung at 100 mg/kg
Assay type: ADME, organism-based
Design: dose 100 mg/kg
METRIC: half-life (min)

1. COc1c(N2CC3(CC3)[C@](C)(N)C2)c(F)cc2c(=O)c(C(=O)O)cn([C@@H]3C[C@@H]3F)c12    116

###

Assay: Cmax in Mycobacterium tuberculosis H37Rv infected BALB/c mouse at 37.5 to 300 mg/kg, po administered 6 times per week for 4 weeks
Type: ADME, organism-based
Design: dose 37.5-300 mg/kg, route oral
Settings: in vivo
METRIC: Cmax (ng/mL)

1) C[C@H]1COC2(CCN(c3nc(=O)c4cc(C(F)(F)F)cc([N+](=O)[O-])c4s3)CC2)O1    2000

###

Assay: Cmax in human at 10 mg, po
Assay type: ADME, organism-based
Design: dose 10 mg, route oral
Conditions: in vivo
METRIC: Cmax

1) COc1nc2ccc(Br)cc2cc1[C@@H](c1ccccc1)[C@@](O)(CCN(C)C)c1cccc2ccccc12    0.07 µg/mL

###

Assay: Tmax in human at 50 to 1500 mg, po
Format: ADME, organism-based
Details: in vivo
METRIC: Tmax

1. O=[N+]([O-])c1cn2c(n1)OC[C@@H](OCc1ccc(OC(F)(F)F)cc1)C2 [PRETOMANID]    4 h

###

Experiment: AUC at steady state (0 to 24 hrs) in human at 150 mg, po qd for 14 days
Assay type: ADME, organism-based
Design: dose 150 mg, time < 24 hr, route oral
Conditions: plasma
METRIC: AUC at 24 h (ng·h/mL)

1. COc1nc2ccc(Br)cc2cc1[C@@H](c1ccccc1)[C@@](O)(CCN(C)C)c1cccc2ccccc12 [BEDAQUILINE]    24000

###

Test: Bioavailability in human at 1200 mg
Assay type: ADME, organism-based
Conditions: in vivo
METRIC: bioavailability

1) O=C([C@@H](O)CO)N1CC=C(c2c(F)cc(N3C[C@H](COc4ccon4)OC3=O)cc2F)CC1 [POSIZOLID]    < 30%

###

Assay: Tmax in Mycobacterium tuberculosis infected mouse at 2.5 mg/kg
Assay type: ADME, organism-based
Design: dose 2.5 mg/kg
Settings: in vivo
METRIC: Tmax

1. C[C@]1(COc2ccc(N3CCC(Oc4ccc(OC(F)(F)F)cc4)CC3)cc2)Cn2cc([N+](=O)[O-])nc2O1    6 h

###

Experiment: Cmax in monkey at 5 mg/kg
Type: ADME, organism-based, Macaca mulatta
Design: dose 5 mg/kg
Conditions: rhesus monkey, in vivo
METRIC: Cmax (ng/mL)

1. COc1c(N2CC3(CC3)[C@](C)(N)C2)c(F)cc2c(=O)c(C(=O)O)cn([C@@H]3C[C@@H]3F)c12    2200

###

Assay: AUC in Mycobacterium tuberculosis infected mouse at 2.5 mg/kg
Format: ADME, organism-based
Set-up: dose 2.5 mg/kg
Details: plasma
METRIC: AUC (ng·h/mL)

1. C[C@]1(COc2ccc(N3CCC(Oc4ccc(OC(F)(F)F)cc4)CC3)cc2)Cn2cc([N+](=O)[O-])nc2O1    4130

###

Experiment: AUC at steady state (0 to 24 hrs) in human at 50 mg, po qd for 14 days
Format: ADME, organism-based
Parameters: dose 50 mg, time < 24 hr, route oral
Conditions: plasma
METRIC: AUC at 24 h (ng·h/mL)

1. COc1nc2ccc(Br)cc2cc1[C@@H](c1ccccc1)[C@@](O)(CCN(C)C)c1cccc2ccccc12    7900

###

Assay: Half life in human up to 300 mg, po
Format: ADME, organism-based
Details: in vivo
METRIC: half-life

1) CC(C)=CCC/C(C)=C/CNCCNC1C2CC3CC(C2)CC1C3 (stereo unspecified)    2.54 days

###

Assay: Bioavailability in human
Assay type: ADME, organism-based
Settings: in vivo
METRIC: bioavailability

1) COc1c(N2C[C@@H]3CCCN[C@@H]3C2)c(F)cc2c(=O)c(C(=O)O)cn(C3CC3)c12    90%

###

Assay: AUC at steady state (0 to 24 hrs) in human at 400 mg, po qd for 14 days
Assay type: ADME, organism-based
Set-up: dose 400 mg, time < 24 hr, route oral
Conditions: plasma
METRIC: AUC at 24 h (ng·h/mL)

1) COc1nc2ccc(Br)cc2cc1[C@@H](c1ccccc1)[C@@](O)(CCN(C)C)c1cccc2ccccc12 [BEDAQUILINE]    52000

###

Assay: Bioavailability in human at 50 mg
Assay type: ADME, organism-based
Conditions: in vivo
METRIC: bioavailability (%)

1) O=C([C@@H](O)CO)N1CC=C(c2c(F)cc(N3C[C@H](COc4ccon4)OC3=O)cc2F)CC1    100
